# credit: ChEMBL document CHEMBL4392822

system.name: Thiosulfate sulfurtransferase (Homo sapiens, UniProt Q16762);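 note: native rhodanese of unspecified species, enzyme activity read after 45 min by spectrophotometric detection of Fe(SCN)3 colour, IC50 reflects activity reduction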
Sequence (Q16762 whole entry): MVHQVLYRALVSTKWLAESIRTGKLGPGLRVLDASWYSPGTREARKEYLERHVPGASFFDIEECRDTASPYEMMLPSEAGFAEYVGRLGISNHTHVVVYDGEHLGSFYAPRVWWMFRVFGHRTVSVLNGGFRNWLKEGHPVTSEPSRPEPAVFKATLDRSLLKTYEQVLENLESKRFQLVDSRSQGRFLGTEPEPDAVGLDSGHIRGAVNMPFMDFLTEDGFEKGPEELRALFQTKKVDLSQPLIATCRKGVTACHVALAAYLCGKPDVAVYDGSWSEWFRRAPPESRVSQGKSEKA
measurement.kind: IC50 (µM)
One number for each entry, in µM.

molecule: COc1cc(-c2ccc(/N=N/c3ccc4c(S(=O)(=O)O)cc(S(=O)(=O)O)c(N)c4c3O)c(OC)c2)ccc1/N=N/c1ccc2c(S(=O)(=O)O)cc(S(=O)(=O)O)c(N)c2c1O
measurement.kind: IC50
numeric.readout: 8.5

Please look at the following molecule next.
Return reported IC50; argument: O=c1c(O)c(-c2ccc(O)c(O)c2)oc2c(O)c(O)cc(O)c12 [GOSSYPETIN]
0.33
